All values here come from the RNAGym collection of RNA variant scans (doi:10.7554/elife.80360).

In this section, each of the variants is paired with its reported self-cleavage.
B1: CPEB3 Ribozyme (parent)
chain: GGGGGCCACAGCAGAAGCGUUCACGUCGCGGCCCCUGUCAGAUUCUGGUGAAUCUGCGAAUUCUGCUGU

Variants of: B1
Assay: self-cleavage, relative activity (ratio to wild type); higher = more cleavage; co-transcriptional
The response must contain the number and no unit.

{"columns": ["variant-description", "property-label", "assay-result"],
 "data": [
  ["A13C U61C", "self-cleavage", 0.281],
  ["C7G U55C", "self-cleavage", 0.185],
  ["A23C C66A", "self-cleavage", 0.908],
  ["C22U C45U", "self-cleavage", 0.318],
  ["G5C A52G", "self-cleavage", 0.287]
]}

Value of measured self-cleavage for the entry G30U U36G : 0.175

Value of measured self-cleavage for the entry U38C A40U : 0.889
